Values were extracted from patent US8927500B2.

- ASSAYED_SYSTEM: MDMX (Homo sapiens, UniProt O15151)
- Sequence (O15151 1-125): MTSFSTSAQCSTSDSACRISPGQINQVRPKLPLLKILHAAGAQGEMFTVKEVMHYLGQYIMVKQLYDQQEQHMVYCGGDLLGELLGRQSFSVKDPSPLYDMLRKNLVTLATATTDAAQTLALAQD
- ASSAY_SUMMARY: Competitive fluorescence polarization assay for MDMX
- Assay type: binding
- PARTICULARS: competitive FP assay, read-out: Ki (MDMX)
Quick reference: Ki of the listed items.

GET /value?item= CCCC[C@H](NC(=O)[C@H](C)NC(=O)[C@H](C)NC(=O)[C@]1(C)CCCC=CCCCCCC[C@@](C)(NC(=O)[C@H](Cc2ccc(F)c(F)c2)NC(=O)[C@@H](NC(=O)[C@H](CC(C)C)NC(C)=O)[C@@H](C)O)C(=O)N[C@@H](C)C(=O)N[C@@H](Cc2ccc(O)cc2)C(=O)N[C@@H](Cc2c[nH]c3ccccc23)C(=O)N[C@@H](C)C(=O)N[C@@H](CCC(N)=O)C(=O)N[C@@H](CCC(C)C)C(=O)N1)C(=O)N[C@@H](C)C(N)=O (single isomer, unassigned) &field=Ki returns 10 to 100 nM

--- query ---
Please fill in: Ki reported for CC(=O)N[C@@H](CC(C)C)C(=O)N[C@H](C(=O)N[C@@H](Cc1ccccc1)C(=O)N[C@]1(C)CCCCCCC=CCCC[C@@](C)(C(=O)N[C@@H](CO)C(=O)N[C@@H](C)C(=O)N[C@@H](C)C(N)=O)NC(=O)[C@H](CC2CCC2)NC(=O)[C@H](CCC(N)=O)NC(=O)[C@H](C)NC(=O)[C@H](Cc2c[nH]c3cc(Cl)ccc23)NC(=O)[C@H](Cc2ccc(O)cc2)NC(=O)[C@H](CCC(=O)O)NC1=O)[C@@H](C)O = < 10 nM
